The origin of these recorded values is patent US20040147562A1.

- assayed system: Edg-5 (Homo sapiens)
- Sequence (O95136 whole entry): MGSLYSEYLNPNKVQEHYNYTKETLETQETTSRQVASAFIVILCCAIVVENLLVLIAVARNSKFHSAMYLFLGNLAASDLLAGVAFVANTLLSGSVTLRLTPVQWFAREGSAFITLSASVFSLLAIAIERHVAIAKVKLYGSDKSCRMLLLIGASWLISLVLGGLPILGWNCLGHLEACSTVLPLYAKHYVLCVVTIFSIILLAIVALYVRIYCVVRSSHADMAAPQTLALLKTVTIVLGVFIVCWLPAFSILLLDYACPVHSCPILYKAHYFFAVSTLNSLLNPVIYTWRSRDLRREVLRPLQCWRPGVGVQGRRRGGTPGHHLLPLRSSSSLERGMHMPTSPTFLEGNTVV
- measurement notes: Intracellular calcium (FLIPR) assay, HTC cells expressing Edg-5
- condition info: agonist
pEC50: −log10 of the molar value.
experimental readout: pEC50

[Q] Return pEC50 (reported value) for this compound: `COc1cc(C(=O)c2cc(Cl)ccc2N)cc(OC)c1OC`
[A] < 4.60

---

- assayed system: human Edg-1 receptors (Homo sapiens)
- measurement notes: Intracellular calcium (FLIPR) assay, HTC cells expressing Edg-1
- Type: cell-based
- Design: Edg 1 IC50 μM; fused on or other part: in the chimera reading: the third intracellular loop (i3) of Edg-3 (S1PR3) in place of Edg-1's own
- condition info: Table 1; Edg-1 modulators; read-out: IC50
For each record, write down the corresponding IC50.
One number for each entry, in µM.

// worked examples, IC50 included
O=C(c1ccccc1)N1N=C(c2ccccc2)CC1(O)C(F)(F)F (stereo not drawn)	5.08
Nc1ccc(C(=O)N2N=C(c3ccccc3)CC2(O)C(F)(F)F)cc1 (stereo not drawn)	3.56
Nc1ccc(C(=O)N2N=C(C(F)(F)F)CC2(O)c2ccc(Br)cc2)cc1 (stereo not drawn)	4.58
CCc1ccc(C2=NN(C(=O)c3cccnc3)C(O)(C(F)(F)F)C2)cc1 (stereo not drawn)	1.74
O=C(c1ccccc1F)N1N=C(C(F)(F)F)CC1(O)c1ccc(Cl)cc1 (stereo not drawn)	6.02
Nc1ccc(C(=O)N2N=C(c3ccc(F)cc3)CC2(O)C(F)(F)F)cc1 (stereo not drawn)	3.94
O=C(c1cccnc1)N1N=C(C(F)(F)F)CC1(O)c1ccc(Cl)cc1 (stereo not drawn)	1.29
O=C(c1cccnc1)N1N=C(c2ccccc2)CC1(O)C(F)(F)F (stereo not drawn)	3.51

The record that follows has no IC50 shown yet.
[Q] Tell me its IC50 on human Edg-1 receptors (Homo sapiens): O=C(c1cccnc1)N1N=C(c2ccc(F)cc2)CC1(O)C(F)(F)F (stereo not drawn)
[A] 5.92
